# merged literature set: IC50 with ATPase family AAA domain-containing protein 2 (Homo sapiens)
tgt: ATPase family AAA domain-containing protein 2 (Homo sapiens)
Sequence (Q6PL18 whole entry): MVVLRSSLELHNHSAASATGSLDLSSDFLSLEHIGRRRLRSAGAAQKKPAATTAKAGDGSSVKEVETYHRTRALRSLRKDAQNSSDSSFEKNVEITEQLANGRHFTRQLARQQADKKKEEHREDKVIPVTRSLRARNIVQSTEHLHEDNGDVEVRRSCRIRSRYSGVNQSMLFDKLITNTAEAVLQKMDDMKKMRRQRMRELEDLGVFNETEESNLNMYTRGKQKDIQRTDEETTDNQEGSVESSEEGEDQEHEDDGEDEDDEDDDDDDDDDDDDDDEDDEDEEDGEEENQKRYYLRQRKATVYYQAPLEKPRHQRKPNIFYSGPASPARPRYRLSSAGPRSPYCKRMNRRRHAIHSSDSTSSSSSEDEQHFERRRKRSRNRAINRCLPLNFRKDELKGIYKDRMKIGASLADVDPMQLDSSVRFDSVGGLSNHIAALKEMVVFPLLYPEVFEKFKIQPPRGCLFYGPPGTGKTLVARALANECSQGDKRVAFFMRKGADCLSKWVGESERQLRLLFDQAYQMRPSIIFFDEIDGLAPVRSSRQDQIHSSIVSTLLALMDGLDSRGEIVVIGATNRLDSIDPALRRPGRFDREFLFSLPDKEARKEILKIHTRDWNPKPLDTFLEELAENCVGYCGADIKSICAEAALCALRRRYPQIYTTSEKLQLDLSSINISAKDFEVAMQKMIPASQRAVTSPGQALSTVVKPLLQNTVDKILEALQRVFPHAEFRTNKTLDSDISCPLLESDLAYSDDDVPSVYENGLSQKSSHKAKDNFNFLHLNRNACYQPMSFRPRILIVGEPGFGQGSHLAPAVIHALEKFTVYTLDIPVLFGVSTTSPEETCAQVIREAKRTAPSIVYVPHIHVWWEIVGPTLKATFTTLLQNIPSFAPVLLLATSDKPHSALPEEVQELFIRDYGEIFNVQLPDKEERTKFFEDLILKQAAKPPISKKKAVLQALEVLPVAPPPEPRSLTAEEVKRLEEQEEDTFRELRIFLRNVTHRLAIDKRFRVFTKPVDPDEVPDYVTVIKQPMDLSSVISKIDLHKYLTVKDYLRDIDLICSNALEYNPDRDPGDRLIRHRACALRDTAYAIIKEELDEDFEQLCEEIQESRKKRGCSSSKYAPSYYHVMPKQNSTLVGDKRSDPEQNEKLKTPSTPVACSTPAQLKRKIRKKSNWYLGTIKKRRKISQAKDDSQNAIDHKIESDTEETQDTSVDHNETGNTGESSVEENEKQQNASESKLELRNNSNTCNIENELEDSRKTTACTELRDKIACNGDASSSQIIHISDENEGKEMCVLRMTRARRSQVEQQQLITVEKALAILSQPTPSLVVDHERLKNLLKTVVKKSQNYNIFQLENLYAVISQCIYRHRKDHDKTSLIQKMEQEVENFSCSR
One number for each entry, in µM.

compound	tgt	experimental_result
C[C@H]1CCN(S(=O)(=O)c2cc(NC(=O)CN3C(=O)N[C@](C)(C4CC4)C3=O)ccc2Br)C1	ATPase family AAA domain-containing protein 2 (Homo sapiens)	0.1
Cc1cc2c(C3CCCCC3)cnc(NC3CCN(CCCN)CC3)c2[nH]c1=O	ATPase family AAA domain-containing protein 2 (Homo sapiens)	10
CN(C)CC1CCN(S(=O)(=O)c2cc(NC(=O)CN3C(=O)CNC3=O)ccc2Cl)C1 (stereo unspecified)	ATPase family AAA domain-containing protein 2 (Homo sapiens)	1
C[C@H]1CCN(S(=O)(=O)c2cc(NC(=O)Cn3cc(CN(C)C)nn3)ccc2Br)C1	ATPase family AAA domain-containing protein 2 (Homo sapiens)	1.26
CC1NC(=O)N(CC(=O)Nc2ccc(Cl)c(S(=O)(=O)N3CCCC3)c2)C1=O (racemic)	ATPase family AAA domain-containing protein 2 (Homo sapiens)	1.26
Cc1cc2c(-c3cncc(CO)c3)cnc(NC3CCN(CCCN)CC3)c2[nH]c1=O	ATPase family AAA domain-containing protein 2 (Homo sapiens)	0.631
O=C(CN1CCCC1=O)Nc1ccc(Cl)c(S(=O)(=O)N2CCCC2)c1	ATPase family AAA domain-containing protein 2 (Homo sapiens)	50.1
O=C(CN1C(=O)CNC1=O)Nc1ccc(Cl)c(S(=O)(=O)N2CCCCCC2)c1	ATPase family AAA domain-containing protein 2 (Homo sapiens)	1.26

The following compounds each have a reported value; give each one's IC50.
1. Cc1cncc(-c2cnc(NC3CCN(CCCN)CC3)c3[nH]c(=O)c(C)cc23)c1
2. CCCc1cn(CC(=O)Nc2ccc(Br)c(S(=O)(=O)N3CC[C@H](C)C3)c2)nn1
3. Cc1ccc(OCCCC(=O)Nc2nc(C)c(C)s2)cc1
4. C[C@H]1CCN(S(=O)(=O)c2cc(NC(=O)Cn3nnc4c3CCNC4)ccc2Br)C1

Response:
[1, 1.58, 23, 2.51]

The reported ATPase family AAA domain-containing protein 2 (Homo sapiens) IC50 of CN1CCc2c(nnn2CC(=O)Nc2ccc(Br)c(S(=O)(=O)N3CC[C@H](C4CC4)C3)c2)C1 is 2
